molecular target: sodium channel (site 2); assay: Sodium channel receptor binding (site 2); settings: sodium channel site 2 binding; read-out: Na (site 2) (IC50)
Recorded Endpoint: IC50

Known results for compounds:
CN(CC(NC(=O)Nc1ccc(OC(F)(F)F)cc1)C(C)(C)C)C1CCN(Cc2ccccc2)C1 (stereo not shown)
< 100 nM
O=C(NC1CCN(Cc2ccccc2)CC1)[C@@H]1Cc2ccccc2CN1C(=O)Nc1cccc(C(F)(F)F)c1
< 100 nM
CN(CC(NC(=O)Nc1cccc(C(F)(F)F)c1)C(C)(C)C)C1CCN(Cc2ccccc2)C1 (stereo not shown)
< 100 nM

I have 7 compounds here; please give me IC50 for each one.
1. CN(C)C[C@H](Cc1ccccc1)NC(=O)[C@@H](NC(=O)Nc1cccc(C(F)(F)F)c1)C(C)(C)C
2. CC(C)(C)[C@H](NC(=O)Nc1cccc(C(F)(F)F)c1)C(=O)N[C@@H](Cc1ccccc1)C(=O)N1CCNCC1
3. CC(C)(C)[C@H](NC(=O)Nc1cc(F)ccc1F)C(=O)N[C@H]1CCN(Cc2ccccc2)C1
4. CN(C)CCN(Cc1ccccc1)C(=O)[C@@H]1CCCN1C(=O)Nc1ccc(OC(F)(F)F)cc1
5. CN(C(=O)C(NC(=O)Nc1ccc(OC(F)(F)F)cc1)C(C)(C)C)C1CCN(Cc2ccccc2)C1 (stereo not shown)
6. CC(C)(C)[C@H](NC(=O)Nc1cccc(C(F)(F)F)c1)C(=O)N[C@@H]1CCN(Cc2ccccc2)C1
7. CN(C)CCN(Cc1ccccc1)C(=O)[C@@H](NC(=O)Nc1cccc(C(F)(F)F)c1)C(C)(C)C

["< 1000 nM", "> 1000 nM", "< 1000 nM", "< 1000 nM", "< 1000 nM", "< 1000 nM", "< 1000 nM"]

* * *

biological target: sodium channel (site 2); test: Sodium channel receptor binding (site 2); settings: sodium channel site 2 binding; read-out: Na (site 2) (IC50)
Recorded Endpoint: IC50

CC(C)(C)C(NC(=O)Nc1cccc(C(F)(F)F)c1)C(=O)NC(CN)Cc1ccccc1 (stereo not shown)
< 100 nM
CC(C)(C)[C@@H](CN[C@H](CN)Cc1ccccc1)NC(=O)Nc1cccc(C(F)(F)F)c1
< 100 nM
O=C(NC1CCN(Cc2ccccc2)CC1)[C@@H]1Cc2ccccc2CN1C(=O)Nc1ccc(OC(F)(F)F)cc1
< 100 nM
CC(C)(C)[C@H](NC(=O)Nc1cc(F)ccc1F)C(=O)N[C@@H]1CCN(Cc2ccccc2)C1
< 1000 nM
CC(C)(C)[C@H](NC(=O)Nc1ccc(OC(F)(F)F)cc1)C(=O)N[C@H]1CCN(Cc2ccccc2)C1
< 1000 nM

I have 2 molecules here; please give me IC50 for each one.
1. CN(C(=O)C(NC(=O)Nc1cccc(C(F)(F)F)c1)C(C)(C)C)C1CCN(Cc2ccccc2)C1 (stereo not shown)
2. CN(C)CCN(Cc1ccccc1)C(=O)[C@@H]1Cc2ccccc2CN1C(=O)Nc1cccc(C(F)(F)F)c1

1. < 100 nM
2. < 100 nM

* * *

For each entry below, report its IC50 value.
biological target: potassium channel [KA], [KV] or [SKCa]; experiment: Potassium channel receptor binding; details: read-out: K** (IC50)

Known results for compounds:
CC(C)(C)C(NC(=O)Nc1cccc(C(F)(F)F)c1)C(=O)NC(CN)Cc1ccccc1 (stereo not shown) [Compound 4]
> 1000 nM
CC(C)(C)[C@H](NC(=O)Nc1cc(F)ccc1F)C(=O)N[C@H]1CCN(Cc2ccccc2)C1 [Compound 3c]
> 1000 nM
CC(C)(C)[C@@H](CN[C@H](CN)Cc1ccccc1)NC(=O)Nc1cccc(C(F)(F)F)c1 [Compound 5]
> 1000 nM

Consider the record given below.
Please report the recorded IC50 for CN(C)C[C@H](Cc1ccccc1)NC(=O)[C@@H](NC(=O)Nc1cccc(C(F)(F)F)c1)C(C)(C)C [Compound 18] .
> 1000 nM
